- experiment: Half life in rat after intravenous administration at a concentration 0.5 mg/kg
- Format: ADME, organism-based
- Parameters: dose 0.5 mg/kg, route intravenous
- test settings: in vivo
reported endpoint: half-life (h)

chemical smiles: C[C@@H]1CC(=O)NN=C1c1ccc(NC2=C(Cc3ccccc3)C(=O)CCC2)cc1
quantitative readout: 1

###

- experiment: Plasma clearance in rat after intravenous administration at a concentration 0.5 mg/kg
- Assay type: ADME, organism-based
- Design: dose 0.5 mg/kg, route intravenous

chemical smiles: C[C@@H]1CC(=O)NN=C1c1ccc(NC2=C(Cc3ccccc3)C(=O)CCC2)cc1
clearance [mL/min/kg]: 6.8

###

- system name: cGMP-inhibited 3',5'-cyclic phosphodiesterase 3B (Homo sapiens)
- Sequence (Q13370 whole entry): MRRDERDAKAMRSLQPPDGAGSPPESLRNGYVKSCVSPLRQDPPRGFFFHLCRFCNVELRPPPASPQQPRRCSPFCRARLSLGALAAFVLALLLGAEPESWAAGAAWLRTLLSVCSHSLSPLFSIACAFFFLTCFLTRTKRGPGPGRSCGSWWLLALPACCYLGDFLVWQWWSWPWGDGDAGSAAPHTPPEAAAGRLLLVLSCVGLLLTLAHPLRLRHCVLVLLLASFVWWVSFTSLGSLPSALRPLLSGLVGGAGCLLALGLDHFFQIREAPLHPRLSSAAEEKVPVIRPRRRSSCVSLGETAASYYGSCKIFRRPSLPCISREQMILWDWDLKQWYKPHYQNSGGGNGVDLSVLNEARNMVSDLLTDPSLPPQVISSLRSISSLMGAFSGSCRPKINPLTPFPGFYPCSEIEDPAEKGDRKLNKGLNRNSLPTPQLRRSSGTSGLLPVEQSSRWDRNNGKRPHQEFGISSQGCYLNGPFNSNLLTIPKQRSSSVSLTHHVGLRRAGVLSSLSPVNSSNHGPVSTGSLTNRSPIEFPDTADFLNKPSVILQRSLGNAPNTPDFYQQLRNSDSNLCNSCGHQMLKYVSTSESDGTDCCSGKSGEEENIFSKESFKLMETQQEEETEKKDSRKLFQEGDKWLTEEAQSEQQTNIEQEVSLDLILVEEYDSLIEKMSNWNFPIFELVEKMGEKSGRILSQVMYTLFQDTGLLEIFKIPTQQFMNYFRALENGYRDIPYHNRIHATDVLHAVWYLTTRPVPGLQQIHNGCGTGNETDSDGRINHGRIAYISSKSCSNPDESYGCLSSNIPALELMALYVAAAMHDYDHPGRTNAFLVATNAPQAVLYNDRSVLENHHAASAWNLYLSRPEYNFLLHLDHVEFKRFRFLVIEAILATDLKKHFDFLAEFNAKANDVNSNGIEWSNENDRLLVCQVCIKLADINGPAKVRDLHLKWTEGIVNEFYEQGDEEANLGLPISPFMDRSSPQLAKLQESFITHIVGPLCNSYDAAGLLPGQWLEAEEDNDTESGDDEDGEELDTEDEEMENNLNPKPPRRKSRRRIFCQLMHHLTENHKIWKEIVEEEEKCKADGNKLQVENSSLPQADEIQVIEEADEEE
IC50 under 2 nM gets yes (1), anything at or over 2 nM gets no (0).

compound: CC1CC(=O)NN=C1c1ccc(NC2=C(Cc3ccc([N+](=O)[O-])cc3)C(=O)CCC2)cc1 (configuration not stated)
label: no (0)

compound: COc1ccccc1CC1=C(Nc2ccc(C3=NNC(=O)CC3C)cc2)CCCC1=O (configuration not stated)
label: yes (1)

compound: CC1(C)C(=O)NN=C1c1ccc(NC2=C(Cc3cccc([N+](=O)[O-])c3)C(=O)CCC2)cc1F
label: no (0)

compound: CC1CC(=O)NN=C1c1ccc(NC(=O)OCc2ccccc2)cc1 (configuration not stated)
label: yes (1)

compound: Cc1cc(C2=NNC(=O)CC2C)ccc1/N=C1\CCCC(O)=C1Cc1ccccc1 (configuration not stated)
label: yes (1)

compound: C[C@@H]1CC(=O)NN=C1c1ccc(NC2=C(Cc3ccccc3)C(=O)CCC2)cc1
label: yes (1)

compound: CC1(C)C(=O)NN=C1c1ccc(NC2=C(Cc3ccccc3)C(=O)CCC2)cc1
label: no (0)

compound: CC1(C)C(=O)NN=C1c1ccc(NC2=C(Cc3c(Cl)cccc3Cl)C(=O)CCC2)cc1F
label: yes (1)

compound: CC1(C)C(=O)NN=C1c1ccc(NC2=C(Cc3cccc([N+](=O)[O-])c3)C(=O)CCC2)cc1Cl
label: no (0)

compound: CC1(C)C(=O)NN=C1c1ccc(NC2=C(Cc3ccccc3Cl)C(=O)CCC2)cc1F
label: yes (1)

compound: CC1(C)C(=O)NN=C1c1ccc(NC2=C(Cc3cccc(C#N)c3)C(=O)CCC2)cc1F
label: no (0)

compound: Cc1cc(NC2=C(Cc3cccc(C#N)c3)C(=O)CCC2)ccc1C1=NNC(=O)C1(C)C
label: no (0)

compound: CC1(C)C(=O)NN=C1c1ccc(NC2=C(Cc3ccccc3)C(=O)CCC2)cc1F
label: no (0)

compound: CC1CC(=O)NN=C1c1ccc(NC2=C(Cc3ccccc3C(F)(F)F)C(=O)CCC2)cc1 (configuration not stated)
label: yes (1)

compound: CC1(C)C(=O)NN=C1c1ccc(NC2=C(Cc3ccc(F)cc3)C(=O)CCC2)cc1F
label: no (0)

compound: CC1(C)C(=O)NN=C1c1ccc(NC2=C(Cc3cccc(F)c3)C(=O)CCC2)cc1F
label: no (0)

compound: CN(C(=O)CCCOc1ccc2[nH]c(=O)ccc2c1)C1CCCCC1 [CILOSTAMIDE]
label: no (0)

###

- experiment: Oral bioavailability was determined in rat after oral administration at a concentration 1 mg/kg
- Assay type: ADME, organism-based
- test settings: in vivo

chemical smiles: C[C@@H]1CC(=O)NN=C1c1ccc(NC2=C(Cc3ccccc3)C(=O)CCC2)cc1
bioavailability (%): 61

###

- system name: cGMP-inhibited 3',5'-cyclic phosphodiesterase 3A (Homo sapiens)
- Sequence (Q14432 whole entry): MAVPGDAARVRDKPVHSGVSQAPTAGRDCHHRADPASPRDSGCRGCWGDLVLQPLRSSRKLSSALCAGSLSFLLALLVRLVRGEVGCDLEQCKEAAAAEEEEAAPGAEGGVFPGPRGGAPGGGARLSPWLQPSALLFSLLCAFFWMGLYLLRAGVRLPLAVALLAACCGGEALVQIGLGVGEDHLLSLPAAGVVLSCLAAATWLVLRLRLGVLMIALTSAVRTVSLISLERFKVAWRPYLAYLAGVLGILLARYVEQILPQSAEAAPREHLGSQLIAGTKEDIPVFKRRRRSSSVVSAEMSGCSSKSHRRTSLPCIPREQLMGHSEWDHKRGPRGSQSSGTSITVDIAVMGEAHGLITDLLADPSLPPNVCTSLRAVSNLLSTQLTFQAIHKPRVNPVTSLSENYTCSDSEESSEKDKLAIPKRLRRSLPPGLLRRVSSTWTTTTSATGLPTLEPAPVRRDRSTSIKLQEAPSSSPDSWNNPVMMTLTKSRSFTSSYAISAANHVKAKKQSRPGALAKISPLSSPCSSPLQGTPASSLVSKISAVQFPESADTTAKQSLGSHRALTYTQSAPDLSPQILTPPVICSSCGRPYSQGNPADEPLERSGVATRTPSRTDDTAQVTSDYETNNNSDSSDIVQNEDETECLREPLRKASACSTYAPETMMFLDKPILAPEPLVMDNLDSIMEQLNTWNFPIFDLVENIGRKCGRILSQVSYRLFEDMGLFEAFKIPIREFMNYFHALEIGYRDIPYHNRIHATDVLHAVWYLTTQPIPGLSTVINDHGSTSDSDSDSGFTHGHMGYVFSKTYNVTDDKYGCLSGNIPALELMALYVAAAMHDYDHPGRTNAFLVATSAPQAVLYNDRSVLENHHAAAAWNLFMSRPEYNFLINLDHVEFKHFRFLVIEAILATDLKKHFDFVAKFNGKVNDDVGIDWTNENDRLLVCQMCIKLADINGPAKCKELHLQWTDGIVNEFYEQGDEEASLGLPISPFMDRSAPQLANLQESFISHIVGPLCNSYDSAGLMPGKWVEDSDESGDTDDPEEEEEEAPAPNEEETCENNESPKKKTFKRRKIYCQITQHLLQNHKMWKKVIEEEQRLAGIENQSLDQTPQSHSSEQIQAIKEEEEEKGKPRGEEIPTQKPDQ
pIC50: −log10 of the molar value.
Listed below: pIC50 values for each entry.
reported endpoint: pIC50

compound: CC1(C)C(=O)NN=C1c1ccc(NC2=C(Cc3ccc(F)cc3)C(=O)CCC2)cc1F
system name: cGMP-inhibited 3',5'-cyclic phosphodiesterase 3A (Homo sapiens)
reported endpoint: pIC50
quantitative readout: 7.20

compound: CC1CC(=O)NN=C1c1ccc(NC2=C(Cc3ccc([N+](=O)[O-])cc3)C(=O)CCC2)cc1 (configuration not stated)
system name: cGMP-inhibited 3',5'-cyclic phosphodiesterase 3A (Homo sapiens)
reported endpoint: pIC50
quantitative readout: 7.62

compound: CC1(C)C(=O)NN=C1c1ccc(NC2=C(Cc3cccc([N+](=O)[O-])c3)C(=O)CCC2)cc1Cl
system name: cGMP-inhibited 3',5'-cyclic phosphodiesterase 3A (Homo sapiens)
reported endpoint: pIC50
quantitative readout: 6.26

compound: COc1ccc(CC2=C(Nc3ccc(C4=NNC(=O)CC4C)cc3)CCCC2=O)cc1 (configuration not stated)
system name: cGMP-inhibited 3',5'-cyclic phosphodiesterase 3A (Homo sapiens)
reported endpoint: pIC50
quantitative readout: 8.64

compound: C[C@@H]1CC(=O)NN=C1c1ccc(NC(=O)c2ccccc2C(F)(F)F)cc1
system name: cGMP-inhibited 3',5'-cyclic phosphodiesterase 3A (Homo sapiens)
reported endpoint: pIC50
quantitative readout: 7.82

compound: C[C@@H]1CC(=O)NN=C1c1ccc(NC2=C(Cc3ccccc3)C(=O)CCC2)cc1
system name: cGMP-inhibited 3',5'-cyclic phosphodiesterase 3A (Homo sapiens)
reported endpoint: pIC50
quantitative readout: 8.89

compound: CC1CC(=O)NN=C1c1ccc(NC2=C(Cc3cccc(I)c3)C(=O)CCC2)cc1 (configuration not stated)
system name: cGMP-inhibited 3',5'-cyclic phosphodiesterase 3A (Homo sapiens)
reported endpoint: pIC50
quantitative readout: 9.48

compound: CC1=C(Nc2ccc(C3=NNC(=O)C[C@H]3C)cc2)CCCC1=O
system name: cGMP-inhibited 3',5'-cyclic phosphodiesterase 3A (Homo sapiens)
reported endpoint: pIC50
quantitative readout: 7.36

compound: Cc1cc(NC2=C(Cc3cccc(C#N)c3)C(=O)CCC2)ccc1C1=NNC(=O)C1(C)C
system name: cGMP-inhibited 3',5'-cyclic phosphodiesterase 3A (Homo sapiens)
reported endpoint: pIC50
quantitative readout: 6.89

compound: CC1CC(=O)NN=C1c1ccc(NC2=C(Cc3ccccc3C(F)(F)F)C(=O)CCC2)cc1 (configuration not stated)
system name: cGMP-inhibited 3',5'-cyclic phosphodiesterase 3A (Homo sapiens)
reported endpoint: pIC50
quantitative readout: 9.08

compound: CC1(C)C(=O)NN=C1c1ccc(NC2=C(Cc3c(Cl)cccc3Cl)C(=O)CCC2)cc1F
system name: cGMP-inhibited 3',5'-cyclic phosphodiesterase 3A (Homo sapiens)
reported endpoint: pIC50
quantitative readout: 8.66

compound: CC1CC(=O)NN=C1c1ccc(NC2=C(Cc3ccccc3)C(=O)CCC2)cc1Cl (configuration not stated)
system name: cGMP-inhibited 3',5'-cyclic phosphodiesterase 3A (Homo sapiens)
reported endpoint: pIC50
quantitative readout: 7.34

compound: CC1(C)C(=O)NN=C1c1ccc(NC2=C(Cc3ccccc3)C(=O)CCC2)cc1
system name: cGMP-inhibited 3',5'-cyclic phosphodiesterase 3A (Homo sapiens)
reported endpoint: pIC50
quantitative readout: 7.28

compound: CC1(C)C(=O)NN=C1c1ccc(NC2=C(Cc3cccc([N+](=O)[O-])c3)C(=O)CCC2)cc1F
system name: cGMP-inhibited 3',5'-cyclic phosphodiesterase 3A (Homo sapiens)
reported endpoint: pIC50
quantitative readout: 6.82

compound: CC1(C)C(=O)NN=C1c1ccc(NC2=C(Cc3ccccc3)C(=O)CCC2)cc1F
system name: cGMP-inhibited 3',5'-cyclic phosphodiesterase 3A (Homo sapiens)
reported endpoint: pIC50
quantitative readout: 7.70

compound: Cc1cc(NC2=C(Cc3ccccc3)C(=O)CCC2)ccc1C1=NNC(=O)C1(C)C
system name: cGMP-inhibited 3',5'-cyclic phosphodiesterase 3A (Homo sapiens)
reported endpoint: pIC50
quantitative readout: 7.42

compound: CC1CC(=O)NN=C1c1cc(F)c(NC2=C(Cc3ccccc3)C(=O)CCC2)cc1F (configuration not stated)
system name: cGMP-inhibited 3',5'-cyclic phosphodiesterase 3A (Homo sapiens)
reported endpoint: pIC50
quantitative readout: 8.80

###

- Tested on: Rattus norvegicus
- experiment: Area under curve was determined in rat after oral administration at a concentration 1 mg/kg
- Assay type: ADME, organism-based
- Set-up: dose 1 mg/kg, route oral
- test settings: in vivo

chemical smiles: C[C@@H]1CC(=O)NN=C1c1ccc(NC2=C(Cc3ccccc3)C(=O)CCC2)cc1
AUC: 3.6 µM·h
